Data credit: ChEMBL document CHEMBL5154682

ASSAY_TEXT: Selectivity index, ratio of IC50 for recombinant human TTBK1 to IC50 for recombinant human TTBK2
Field: class. Source value: Selectivity Index. Ranges: 1 (below 0.2), 2 (0.2 to below 0.4), 3 (0.4 or more)

Worked examples, 5 compounds total:
SMILES_NOTATION: c1ccc(Nc2ncnc3[nH]ccc23)cc1
ANSWER_LABEL: 3

SMILES_NOTATION: Fc1ccc(Oc2ccc(Nc3ncnc4[nH]ccc34)cc2)cc1
ANSWER_LABEL: 2

SMILES_NOTATION: Clc1cccc(Nc2ncnc3[nH]ccc23)c1
ANSWER_LABEL: 3

SMILES_NOTATION: c1cc(Nc2ncnc3[nH]ccc23)c2c(c1)OCO2
ANSWER_LABEL: 2

SMILES_NOTATION: Nc1nc(Nc2ccc(Oc3ccc(C(F)(F)F)cc3)cc2)c2cc[nH]c2n1
ANSWER_LABEL: 1

Dear colleague, I would appreciate it if you could identify the bin for Clc1ccc(Cn2cc(COc3ccc(Nc4ncnc5[nH]ccc45)cc3)nn2)cc1 and reply at your convenience.
2

Dear colleague, I would appreciate it if you could identify the bin for CCOc1ccc(Nc2ncnc3[nH]ccc23)cc1 and reply at your convenience.
1

Dear colleague, I would appreciate it if you could identify the bin for Oc1cccc(Nc2ncnc3[nH]ncc23)c1 and reply at your convenience.
2

Dear colleague, I would appreciate it if you could identify the bin for CC(C)Oc1ccc(Nc2ncnc3[nH]ccc23)cc1 and reply at your convenience.
1

Dear colleague, I would appreciate it if you could identify the bin for c1cncc(Oc2ccc(Nc3ncnc4[nH]ccc34)cc2)c1 and reply at your convenience.
1

Dear colleague, I would appreciate it if you could identify the bin for Oc1cccc(Nc2ncnc3[nH]ccc23)c1 and reply at your convenience.
3

Dear colleague, I would appreciate it if you could identify the bin for Oc1ccc(CCNc2ncnc3[nH]ccc23)cc1 and reply at your convenience.
2

Dear colleague, I would appreciate it if you could identify the bin for Clc1ccc(Nc2ncnc3[nH]ccc23)cc1 and reply at your convenience.
1

Dear colleague, I would appreciate it if you could identify the bin for Cc1ccc(Cn2cc(COc3ccc(Nc4ncnc5[nH]ccc45)cc3)nn2)cc1 and reply at your convenience.
3
